src = PubChem BioAssay AID1159580

Measured normalized growth values are reported for all entries that follow.
- ASSAY_NAME: chemical genetic growth profiling, strain panel (AID 1159580);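 note: tested at 20 µM; growth read once vehicle control cultures reached saturation at 30 °C; 1 = growth at the plate median or of vehicle wells; lower values mean less growth of the strain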
- MEASUREMENT_SETUP: S. cerevisiae deletion strains, growth OD, locus YCL016C, strain dcc1, hits give low values
The campaign covered roughly 5,500 compounds. About 2,000 (36%) were called active. Another 18% or so got no clear call; they are omitted. The list shows a part of the results.
Reply with the value as a number alone.

COMPOUND: CCCN(CCC)C(=O)C(CCC(=O)O)NC(=O)c1ccccc1 (centres undefined)
OBSERVED_RESULT: 1.01

# input Please list normalized growth recorded for the compound Cc1ccc(C(C)C)cc2c(C)ccc1-2
# output 0.985

# input Tell me its normalized growth given CCOP(=S)(OCC)Oc1ccc2c(C)c(Cl)c(=O)oc2c1 as the entry.
# output 0.984

# input Quote normalized growth reported for C=CC1=C(C)/C(=C/c2[nH]c(Cc3[nH]c(/C=C4\NC(=O)C(C)=C4C=C)c(C)c3CCC(=O)O)c(CCC(=O)O)c2C)NC1=O please.
# output 0.994

###

- ASSAY_NAME: chemical genetic growth profiling, strain panel (AID 1159580)
- MEASUREMENT_SETUP: S. cerevisiae deletion strains, growth OD, locus YML120C, strain ndi1
The campaign covered roughly 5,500 compounds. About 2,000 (36%) were called active. Another 18% or so got no clear call; they are omitted. No stated cut-off is given here; in the data, active means normalized growth mostly below about 0.91 (no sharp cut-off); inconclusive means no clear call, values can overlap the other calls; inactive means mostly above about 0.92. Some of the results follow.
Allowed answers: active, inactive

COMPOUND: O=C1OCCN1/N=C\c1ccc([N+](=O)[O-])o1
LABEL_CLASS: inactive

COMPOUND: CC1=C(/C=C/C(C)=C/C=C/C(C)=C/C(=O)O)C(C)(C)CCC1
LABEL_CLASS: inactive

COMPOUND: COc1ccc(-c2cc(C(F)F)nn2-c2ccc(S(N)(=O)=O)cc2)cc1F
LABEL_CLASS: inactive

COMPOUND: CN1CCc2cccc3c2C1Cc1ccc(O)c(O)c1-3 (centres undefined)
LABEL_CLASS: inactive

COMPOUND: c1ccc(-c2ccc(C(c3ccccc3)n3ccnc3)cc2)cc1 (centres undefined)
LABEL_CLASS: active

# input State the result this test recorded for C[C@](N)(Cc1ccc(O)c(O)c1)C(=O)O .
# output inactive

# input Each compound tested received a call. Report the one for CC1=C(/C=C/C(C)=C/C=C/C(C)=C/C=C/C=C(C)/C=C/C=C(C)/C=C/C2=C(C)CCCC2(C)C)C(C)(C)CCC1 .
# output inactive

# input Query: recorded result category for C[C@@H]1CC2C3CCC4=CC(=O)C=C[C@]4(C)[C@@]3(F)[C@@H](O)C[C@]2(C)[C@@]1(O)C(=O)COP(=O)(O)O (some centres undefined) in this test
# output inactive

# input Per the records of this test, what outcome belongs to C=CC1=C(C)/C(=C/c2[nH]c(Cc3[nH]c(/C=C4\NC(=O)C(C)=C4C=C)c(C)c3CCC(=O)O)c(CCC(=O)O)c2C)NC1=O ?
# output inactive

###

- ASSAY_NAME: chemical genetic growth profiling, strain panel (AID 1159580)
- MEASUREMENT_SETUP: S. cerevisiae deletion strains, growth OD, locus YKL009W, strain mrt4, hits give low values
Among all 5,500 compounds or so, about 2,000 (36%) were called active. Another 18% or so got no clear call; they are omitted. The list shows a part of the results.
// returns N unless normalized growth is strictly below 1, in which case Y

COMPOUND: CCn1cc(C(=O)O)c(=O)c2cnc(N3CCNCC3)nc21
LABEL_CLASS: N
//
COMPOUND: CCCCC(CC)CN=C(N)NC(N)=NCCCCCCN=C(N)NC(N)=NCC(CC)CCCC (stereo not drawn)
LABEL_CLASS: Y
//
COMPOUND: O=C(/C=C/c1ccc(O)c(O)c1)O[C@@H]1C[C@](O)(C(=O)O)C[C@@H](O)[C@H]1O
LABEL_CLASS: N
//
COMPOUND: COc1cc(/C=C/C(=O)O)cc(OC)c1OC
LABEL_CLASS: N
//
COMPOUND: O=C(O)c1cc(=O)c(O)c2c(O)c(O)ccc2c1
LABEL_CLASS: N
//
COMPOUND: O=C(O)c1cc(O)c(O)c(O)c1
LABEL_CLASS: N
//
COMPOUND: CN(Cc1cnc2nc(N)nc(N)c2n1)c1ccc(C(=O)NC(CCC(=O)O)C(=O)O)cc1 (stereo not drawn)
LABEL_CLASS: Y
//
COMPOUND: c1cc2c(cc1[C@H]1OC[C@H]3[C@@H]1CO[C@H]3c1ccc3c(c1)OCO3)OCO2
LABEL_CLASS: Y

# input Identify whether the compound COc1cc(O)cc(/C=C/c2ccccc2)c1 records normalized growth below 1.
# output Y

###

- ASSAY_NAME: chemical genetic growth profiling, strain panel (AID 1159580);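 note: tested at 20 µM; growth read once vehicle control cultures reached saturation at 30 °C; 1 = growth at the plate median or of vehicle wells; lower values mean less growth of the strain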
- MEASUREMENT_SETUP: S. cerevisiae deletion strains, growth OD, locus YOL147C, strain pex11, hits give low values
The campaign covered roughly 5,500 compounds. About 2,000 (36%) were called active. Another 18% or so got no clear call; they are omitted. The list shows a part of the results.
MEASURE_NAME: normalized growth
Number only, no unit.

MOLECULE: Cc1ccc(C(C)C)cc2c(C)ccc1-2
normalized growth: 1.03

Would you kindly look at the next entry?
# input Using the record for COc1cc2c(cc1O)CC1c3c(cc(O)c(OC)c3-2)CCN1C (configuration not stated) , state its measured normalized growth.
# output 0.998

###

- ASSAY_NAME: chemical genetic growth profiling, strain panel (AID 1159580);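 note: tested at 20 µM; growth read once vehicle control cultures reached saturation at 30 °C; 1 = growth at the plate median or of vehicle wells; lower values mean less growth of the strain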
- MEASUREMENT_SETUP: S. cerevisiae deletion strains, growth OD, locus YDL185W, strain tfp1, hits give low values
Among all 5,500 compounds or so, about 2,000 (36%) were called active. Roughly 18% stayed inconclusive and do not appear here. The list shows a part of the results.
MEASURE_NAME: normalized growth

Some compounds with recorded normalized growth:
COMPOUND: Nc1nccs1
normalized growth: 0.984 (inactive)

COMPOUND: COc1cc(O)cc(/C=C/c2ccccc2)c1
normalized growth: 0.881 (active)

COMPOUND: CN(C)CCCO[C@H]1[C@@H](C(O)CO)OC2OC(C)(C)O[C@@H]21 (stereo partly specified)
normalized growth: 0.98 (inactive)

COMPOUND: COC(=O)[C@H]1[C@H]2C[C@@H]3c4[nH]c5cc(OC)ccc5c4CCN3C[C@H]2C[C@@H](OC(=O)c2cc(OC)c(OC)c(OC)c2)[C@@H]1OC
normalized growth: 1.02 (inactive)

COMPOUND: CCOP(=S)(OCC)Oc1ccc2c(C)c(Cl)c(=O)oc2c1
normalized growth: 0.957 (inactive)

# input Return the recorded normalized growth value; entry: CC1(C)CC2C1CCC1(C)OC1CCC2(C)O (stereo unspecified)
# output 1.01 (inactive)

# input Give recorded normalized growth. NC(=O)c1cnccn1
# output 1.02 (inactive)

# input Consider the compound COc1cc2c(cc1O)CC1c3c(cc(O)c(OC)c3-2)CCN1C (stereo unspecified) and give its recorded normalized growth.
# output 0.991 (inactive)

# input Read off the recorded normalized growth for COc1cc(C(=O)O)c(O)c2c1OCO2
# output 1 (inactive)

# input Supply normalized growth value. Item: CCOP(=S)(OCC)SCSP(=S)(OCC)OCC
# output 0.957 (inactive)

# input Report normalized growth, nothing else, for this compound: COc1ccc(/C=C/c2cc(O)cc(O[C@@H]3O[C@H](CO)[C@@H](O)[C@H](O)[C@H]3O)c2)cc1O
# output 1.02 (inactive)

###

- ASSAY_NAME: chemical genetic growth profiling, strain panel (AID 1159580);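 note: tested at 20 µM; growth read once vehicle control cultures reached saturation at 30 °C; 1 = growth at the plate median or of vehicle wells; lower values mean less growth of the strain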
- MEASUREMENT_SETUP: S. cerevisiae deletion strains, growth OD, locus YPR163C, strain tif3, hits give low values
About 2,000 (36%) of roughly 5,500 compounds were called active. About 18% were inconclusive and are not listed. The list shows a part of the results.
Each entry below carries its recorded normalized growth.
Provide a numeric answer; units are not to be included.

Here are 6 molecules together with their reported answers.
MOLECULE: CC12CCC(CC1)C(C)(C)O2
MEASURE_NAME: normalized growth
OBSERVED_RESULT: 1.02
--
MOLECULE: CO[C@@H]1C[C@@H](C[C@H]2CC[C@H](C)[C@H]([C@@H](C)C(=O)O)O2)O[C@]2(O[C@](C)([C@H]3CC[C@@](C)(C4O[C@@H](C5O[C@@](O)(CO)[C@H](C)C[C@@H]5C)C[C@@H]4C)O3)C[C@H]2C)[C@@H]1C (stereo partly drawn)
MEASURE_NAME: normalized growth
OBSERVED_RESULT: 1.01
--
MOLECULE: C=CCN1CC[C@]23c4c5ccc(O)c4OC2C(=O)CC[C@@]3(O)[C@H]1C5 (stereo partly drawn)
MEASURE_NAME: normalized growth
OBSERVED_RESULT: 0.996
--
MOLECULE: CCN(CC)CCOC(=O)C(Cc1cccc2ccccc12)CC1CCCO1 (stereo not drawn)
MEASURE_NAME: normalized growth
OBSERVED_RESULT: 1.01
--
MOLECULE: CC[C@]12CCCN3CCc4c(n(c5ccccc45)[C@](O)(C(=O)OC)C1)[C@@H]32
MEASURE_NAME: normalized growth
OBSERVED_RESULT: 0.974
--
MOLECULE: CCOC(=O)c1ccc(N)cc1
MEASURE_NAME: normalized growth
OBSERVED_RESULT: 1

# input Kindly indicate its recorded normalized growth. Item: O=c1ccn([C@@H]2O[C@H](COP(=O)(O)OP(=O)(O)OP(=O)(O)O)[C@@H](O)[C@H]2O)c(=O)[nH]1
# output 1.02

# input Item NCc1ccc(S(N)(=O)=O)cc1 : provide normalized growth
# output 0.995

# input Please list normalized growth recorded for the molecule O=C1O[C@@H](CO)[C@H](O)[C@@H](O)[C@@H]1O
# output 1

# input # return recorded normalized growth for input CN(C)CCCO[C@H]1[C@@H](C(O)CO)OC2OC(C)(C)O[C@@H]21 (stereo partly drawn)
# output 0.986

# input Indicate the recorded normalized growth value for this molecule: NC(=O)c1cnccn1
# output 1.01

# input Provide normalized growth value for the following molecule: Nc1nccs1
# output 0.985

# input Supply normalized growth value. Item: CCOP(=S)(OCC)Oc1ccc2c(C)c(Cl)c(=O)oc2c1
# output 0.987
